Cited source for all entries: the RNAGym collection of RNA variant scans (doi:10.1093/nar/gkz1192)

B1: CPEB3 Ribozyme (parent)
chain: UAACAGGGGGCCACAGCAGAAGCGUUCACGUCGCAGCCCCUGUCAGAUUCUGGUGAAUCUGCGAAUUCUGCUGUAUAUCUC

variants of: B1; assay: self-cleavage, relative activity (ratio to wild type); higher = more cleavage; in vitro, sequencing
// label = T if self-cleavage is not less than 0.2, otherwise F

Check out these entries, answers already filled in.
C11G A28G; T
U49A C71G; T

[ask] Can A18U C40U be said to have self-cleavage at or above 0.2?
[reply] T
